tested on: SK-OV-3 multi-cell spheroids, viability; assay: Anticancer human tumor SK-OV-3 cell line growth inhibition [IpAb]; settings: second compound 0.01 µM; first compound 0.1 µM; hits give low values;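 also: viability read after seven days of drug exposure; percent of DMSO vehicle control luminescence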
measuredAttribute: viability, T/C

Suppose we examine the compound COc1c(OCCCN2CCOCC2)ccc2c3n(c(=NC(=O)c4cnc(N)nc4)nc12)CCN3 + CCN1CCN(Cc2ccc(Nc3ncc(F)c(-c4cc(F)c5nc(C)n(C(C)C)c5c4)n3)nc2)CC1 ; what viability, T/C value has been reported?
7.16%

Suppose we examine the compound C=CC(=O)N1CCN(c2nc(=O)n(-c3c(C)ccnc3C(C)C)c3nc(-c4c(O)cccc4F)c(F)cc23)C(C)C1 (stereo not given) + CCN1CCN(Cc2ccc(Nc3ncc(F)c(-c4cc(F)c5nc(C)n(C(C)C)c5c4)n3)nc2)CC1 ; what viability, T/C value has been reported?
99.2%

Suppose we examine the compound C=CCn1c(=O)c2cnc(Nc3ccc(N4CCN(C)CC4)cc3)nc2n1-c1cccc(C(C)(C)O)n1 + CCN1CCN(Cc2ccc(Nc3ncc(F)c(-c4cc(F)c5nc(C)n(C(C)C)c5c4)n3)nc2)CC1 ; what viability, T/C value has been reported?
46.6%

Suppose we examine the compound Cn1ncc(Cl)c1-c1cc(C(=O)NC(CN)Cc2cccc(F)c2)sc1Cl (stereo not given) + CCN1CCN(Cc2ccc(Nc3ncc(F)c(-c4cc(F)c5nc(C)n(C(C)C)c5c4)n3)nc2)CC1 ; what viability, T/C value has been reported?
41%

Suppose we examine the compound CC1(C)CCC(CN2CCN(c3ccc(C(=O)NS(=O)(=O)c4ccc(NCC5CCOCC5)c([N+](=O)[O-])c4)c(Oc4cnc5[nH]ccc5c4)c3)CC2)=C(c2ccc(Cl)cc2)C1 + CCN1CCN(Cc2ccc(Nc3ncc(F)c(-c4cc(F)c5nc(C)n(C(C)C)c5c4)n3)nc2)CC1 ; what viability, T/C value has been reported?
96.9%
